Test: label from the status in PepcDB records
recorded.endpoint: protein production

MVVSTDQAHSLGDVLGIAVPPTGQGDPVRVLAYDPEAGGGFLDALALDTLALLEGRWLHVVETLDRRFPGSELSSIAPEELCALPGIQEVLGLHAVGELAAARRWDRIVVDCASTADALRMLTLPATFGLYVERAWPRHRRLSIGADDGRSAVLAELLERIRASVERLSTLLTDGALVSAHLVLTPERVVAAEAVRTLGSLALMGVRVEELLVNQLLVQDENYEYRSLPDHPAFHWYAERIGEQRAVLDDLDATIGDVALVLVPHLAGEPIGPKALGGLLDSARRRQGSAPPGPLQPIVDLESGSGLASIYRLRLALPQLDPGTLTLGRADDDLIVSAGGMRRRVRLASVLRRCTVLDAHLRGGELTVRFRPNPEVWPT: failed
MDLNFSKEEIAFRDEVRQFFKDNVPAKTRQKLIEGRHNTKEEMVEWYRILNKKGWAVTHWPKEYGGTGWSSVQHYIFNEELQAAPAPQPLAFGVSMVGPVIYTFGSEEQKKRFLPRIANVDDWWCQGFSEPGSGSDLASLKTKAEKKGDKWIINGQKTWTTLAQHADWIFCLCRTDPAAKKQEGISFILVDMKTKGITVRPIQTIDGGHEVNEVFFDDVEVPLENLVGQENKGWDYAKFLLGNERTGIARVGMSKERIRRIKQLAAQVESGGKPVIEDPKFRDKLAAVEIELKALELTQLRVVADEGKHGKGKPNPASSVLKIKGSEIQQATTELLMEVIGPFAAPYDVHGDDDSNETMDWTAQIAPGYFNNRKVSIYGGSNEIQRNIICKAVLGL: failed

====

Assay: label from the status in PepcDB records
recorded.endpoint: protein production

Example sequences with recorded protein production:
MTNTRNENLGYVYGLIAVTAFALTLPAMRAALSALDPVFVALGRGAGAAVLAAVFLWFTRQRLPTREEAKGLIIVAAGAVIGFPLLAAWAMLYVDASHGGVVLGILPLATAVAAALFSNERPSMKFWLFALIGAGLVVGYSLSRAGGTLHPADLALFGSIVCAGVSYAEGARLSKSLGGPQVISWALVFSFPILIIPAIHYAPVSLNLPLESWLGFIYLTVISQYLGFFPWYHGLALGGIAKVGQTQLLQPFLTIIASVLLLGEHADLMTWLVATLVVAVVAVGKHAQVKHNDPESATIADTSPHS: failed
AYGLTFEAPKGILVEEDTEETFLLNNSRFYITIQSLDSDGMTKSDLKSVLKDYANDDGVKDQSAVQEFELPQFFGTYLKGSCETDHCLYACLMTKAAGSGFYISIIYSKENENIAEKILKSFTMEE: not failed
MRISCMSSFLTSDVLIAFSVTFLAGLATLLGGAIVLFFKQPSLRLLSFGLAFSAGAMVYISLTEILNKSIHSFSEVFSAKVGFAFATFAFLTGVIAILLLDRCVPNPHTMLEKTTAQQLDQTQLRRTGLLTMLAITAHNFPEGLATFFATLDSPILGAPLAVAIAIHNIPEGIAIAVPVYMATGQKSYAIWASLLSGLAEPLGAALGYFILAPYMGATMYGIIFGLIAGVMVYLAMDELLPAAKKYSQGHETVYGLVTGMAALATSLVLFQWV: failed
MFQDPTDEYIRTITAHCDLAGKEVLEVGCGTGRITRDLARHARRVVAVDPDETALAKARSAVPAPNVQFLPMPDGVLHFPPASFDVVIHTLSLHHVPLDRMNESLRAAAGLVRDGGVIVVVEPGDGGSFTEAKERFGAGSGDERPGREAAIRAMHGLDGWTVGETVLFRVRFLFADEDDFIATKLPGFGEKPEAFQQEVREFLARHRTAEGVVLDAGRRLNVLRRG: failed
MASYVFIRVSKIRKGYFPVLLAIGFAITFAEGFILFLVNFGAIPTNGPTIQLVPQIIMQNPNPLIRFYGTLILLCFLNTIVLSIFYATIAKLLPKFSG: failed

Please give protein production, item by item, for the list that follows.
1. MSLEGIKQINFQSINVVENLEEAKEGIPTIIMFKTDTCPYCVEMQKELSYVSKEREGKFNIYYARLEEEKNIDLAYKYDANIVPTTVFLDKEGNKFYVHQGLMRKNNIETILNSLGVKEGHHHHHH
2. MTKETDDDDNDIPIQEDDEEKNPDQDYQELLDGLLNLSGRQLLMFYWDHELTEAVREGFEVISQKWMKGIDQMWVHWNTSRATVRSESASQFRNSDRGGLGPHRNISSQKSFVQVHEELEELYGRHVSLGEVFMKTHTRADGSFVDAKAEKVAEVYKKACEEKLTEIDDDGPKTSMNSSELSTHRDLNIDDKNEIFLQSAS

output:
not failed
failed

====

Assay: label from the status in PepcDB records
recorded.endpoint: protein production

MSLSEIKHWVFDMDGTLTIAVHDFAAIREALSIPAEDDILTHLAALPADESAAKHAWLLEHERDLAQGSRPAPGAVELVRELAGRGYRLGILTRNARELAHVTLEAIGLADCFAEADVLGRDEAPPKPHPGGLLKLAEAWDVSPSRMVMVGDYRFDLDCGRAAGTRTVLVNLPDNPWPELTDWHARDCAQLRDLLSA: not failed
MSRAKAAPVAGPEVAANRAGRQARIVAILSSAQVRSQNELAALLAAEGIEVTQATLSRDLEELGAVKLRGADGGTGIYVVPEDGSPVRGVSGGTDRMARLLGELLVSTDDSGNLAVLRTPPGAAHYLASAIDRAALPQVVGTIAGDDTILVVAREPTTGAQLAGMFENLR: not failed

====

Assay: label from the status in PepcDB records
recorded.endpoint: protein production

KLLAITSCPNGIAHTYMAAENLQKAADRLGVSIKVETQGGIGVENKLTEEEIREADAIIIAADRSVNKDRFIGKKLLSVGVQDGIRKPEELIQKALNGDIPVY: not failed
MSEKDFVQVAKLGKTVGLKGYVKLHNLSDFSSQFKKDATFFIKNTKEMLKIKHYNANNSTVLFENYEDIEKAKELTNLILFQSIEKSRQTCKLKKDEFFYFDILECEVFEEDKRLGKVVDILETGASYLFEIQSDEKWVEKKYPKIFFIPYLDKFVKNIDIEKRQIFCTQDAFLILENSLEHHHHHH: not failed

====

Assay: label from the status in PepcDB records
recorded.endpoint: protein production

MCSLEKRDRLFILKLTGDGEHRLNPTLLDSLRSTINQIRSDPSFSQSVLITTSDGKFFSNGYDLALAESNPSLSVVMDAKLRSLVADLISLPMPTIAAVTGHASAAGCILAMSHDYVLMRRDRGFLYMSELDIELIVPAWFMAVIRGKIGSPAARRDVMLTAAKVTADVGVKMGIVDSAYGSAAETVEAAIKLGEEIVQRGGDGHVYGKMRESLLREVLIHTIGEYESGSSVVRSTGSKL: failed
AWMHGHRFYVDERVIVPRSFIGELLDDGLQPYVEDPELVGSVLELCTGSGCLAILAALAFPNASVDAVDLSADALAVAKINRDDYGLDERIALHHGDLYAPLPQFKWIDSAQRYDVIITNPPYVNAESMAELPAEYRHEPEMALAGGADGMDIVRRIIGEARRWLKDDGVLVVEIGNERANVEAAFGGLELVWLPTSAGDDSVFLIHASD: failed
MSAYIAPSQIAQRQLEYFNGKHVLVAGEVEDMFPLELTAHCESVEVFTSNYSYFRQIRHSDKIKSHFGSEFDVETQADMLLLYWPKAKAEAEYLLAMLMAKLGVNTEIVVVGENRSGVKSIEKMFKEYGPVNKYDSARRCSFYWGNCLNEPKPFNQEEWFKSYTVTLGEQSLTVKSLPGVFSHGEFDLGSRLLLETLPNLSGKVLDFGCGAGVLGAFMAKANPEIAIEMCDINAYAITSSQATLEANGLSGRVFASDIYSDTANDYRFIISNPPFHSGLDTNYNAAETLLGHAPQHLSNHGEMIIVANSFLKYPPIIENAFNNCETLNKTNKFSIYYAKKS: failed

====

Experiment: label from the status in PepcDB records
recorded.endpoint: protein production

Example sequences with recorded protein production:
MCLKNNAKDEIMDSTKAWYQSRTIWGALIAVFAPLFSIAGFDLPAGLHGELAEGLVTVAGGIGGLIALYGRLSATRSIR: failed
MSLKFQKLSGLVLCFLIALPAWFLGQSFPLVGAPVFAIFLGMLLAIFYKNREHTEAGIAFTSKYILQFAVVLLGFGLNLSQVLTVGKTSLPIIVATISSSLLLAFLLQKWFKLDVNTATLVGVGSSICGGSAIAATAPVIQADGDEIAQSISVIFLFNILAALIFPTLGDMIGLSNHGFALFAGTAVNDTSSVTATAAAWDGLHHSNTLDGATIVKLTRTLAIIPITLGLSFYQVYKTKKVGKNQQHTVKLKKVFPMFILYFILASIITTILTALGVNPIFFTPLKTLSKFCIVMAMGAIGLNTNIVKLVKTGGQAIVLGASCWIVITLVSLGMQHLLGIW: failed
MLLYIHGFNSSPFSDKAVITARYMAEYHPSLTFHQPQLPNTPKAAMALLQSYVEAAQQANEPLNYIGSSLGGYFASYLAERYGGRAVLVNPAVKPFELFDEFMGPQFNPYTQEHYQVLPEHKREVAEFNTPVIRNPERFLVLLQTGDEVLDYREALHKYHHCQLRIESGGDHSFVGYERYLQTVSQFLH: failed
MFEKQFNHRTLETSLGPVEIEGPVTSQILATYKLDPGLTAFRQPAEQHEALVEIAALEEGRIIIARQGNDIIGYVTFLYPDPYETWSEGNNPYILELGAIEVAARFRGQQIGKKLLEVSMLDPAMEHYLILTTEYYWHWDLKGSGLSVWDYRKIMEKMMNHGGLVFFPTDDPEIASHPANCLMARIGKHVAPEVVAHFDALRLRRRFMYD: not failed
MEYLGPVLWSPAGKPPTWWDSLPTDRPIVYATLGTSGGRNLLQLVLNALAELPVTVIAATAGRSDLKTVPANAFVADYLPGEAAAARSAVVVCNGGSLTTQQALVAGVPVIGVAGNLDQHLNMEAVERAGAGVLLRTERLKSQRVAGAVMQVISRSEYRQAAARLADAFGRLEHHHHHH: failed

Please give protein production, item by item, for the list that follows.
1. MPRPLVDEVRFLRSWIEKPLHMGAVMPSGKLLARTMARYVDIQSDGPVIELGPGTGAITNALVEHGVDQKRLVLLEFDPGFCALLRERFPLAKVVQGDAYRLRDSLWDALEIPATAVVSGLPLVTKPMLTRMKLIRDAFTLLEPGAPFVQFTYSVAPPIPKSLPGVSTEGSERIWMNVPPARVWVYRKRLEHHHHHH
2. MKKKNNNKLHYLDSKGKLYTSGLRSDTKEKYGEIPSSNKNHNLIEKYNELQSLLSKEEEKYDFVKNELGDLQKQKDLLKWHLCNNIKKLSMKRSDYKFKTETKSKLESKLKSLKDMNKIHKFEHDTLEELVHKMEQELETKMYIKNDIENIFNECINKKDEYLKDITQERISVFKERKKRQNQLQKLLLIMKQENNKNYNINYLKKYESNLMNEINSYKNYKDFETKIAMDLIDDHSLNDLYVT
3. MKNVGDLMQRLQKMMPAHIKPAFKTGEELLAWQKEQGAIRSAALERENRAMKMQRTFNRSGIRPLHQNCSFENYRVECEGQMNALSKARQYVEEFDGNIASFIFSGKPGTGKNHLAAAICNELLLRGKSVLIITVADIMSAMKDTFRNSGTSEEQLLNDLSNVDLLVIDEIGVQTESKYEKVIINQIVDRRSSSKRPTGMLTNSNMEEMTKLLGERVMDRMRLGNSLWVIFNWDSYRSRVTGKEY
4. MNILTLMETFSAVVEAGSFTGAAEKLGLSKSFVSKQVSTLEVELGCRLLYRTTRTLSLSDEGSQFYNHCKIIMAEAENARAEVMDRQGAPRGKIRMTIPQSLIISGFGQLLIDFQLQYPEIKLEVIASGRIEDLVKEGIDIALRVGQLEDSSLISRRLMDCTFQVVASSDYIKKWGEPFQPADLMQHNCLIYGDSKINKGWPFRSPSGESITVKAKGNFISNDGGLVVEGMLNGLGIGFGPSFLFNEHVEKGRLKLLLSDYYQPPTAISALYPLNRNLSRRIRLLIDYLSERLSV

output:
1: not failed; 2: failed; 3: failed; 4: not failed

Values compiled from a protein production outcome set (Wang et al. 2014).
